# Test system: E. faecalis ATCC29212
# RUN_DESCRIPTION: MIC, microdilution broth method (NCCLS)
# Assay type: cell-based
# MEASUREMENT_PARAMETERS: Enterococcus faecalis, Table 1, 6-Carbamoyl-3-Acyl Macrolide Derivatives, read-out: MIC Values, C: E. faecalis ATCC29212
RESULT_TYPE: MIC (µg/mL)

As a guide, the following entries are already answered.
Exam item: Look up and report measured MIC for this entry: CC[C@H]1OC(=O)[C@H](C)[C@@H](OC(=O)C(C)C)[C@H](C)[C@@H](O[C@@H]2O[C@H](C)C[C@H](N(C)C)[C@H]2O)[C@](C)(OC(=O)NC/C=C/c2ccc(-c3cnccn3)cc2)C[C@@H](C)C(=O)[C@H](C)[C@H]2NC(=O)O[C@@]21C [Compound 45]
Marked response: 0.5

Exam item: Given CC[C@H]1OC(=O)[C@H](C)[C@@H](OC(=O)c2cnccn2)[C@H](C)[C@@H](O[C@@H]2O[C@H](C)C[C@H](N(C)C)[C@H]2O)[C@](C)(OC(=O)NC/C=C/c2ccc(-c3ncccn3)cc2)C[C@@H](C)C(=O)[C@H](C)[C@H]2NC(=O)O[C@@]21C [Compound 5] , respond with its MIC.
Marked response: 0.5

Exam item: For the compound CC[C@H]1OC(=O)[C@H](C)[C@@H](OC(=O)Cc2ccncc2)[C@H](C)[C@@H](O[C@@H]2O[C@H](C)C[C@H](N(C)C)[C@H]2O)[C@](C)(OC(=O)NC/C=C/c2ccc(-c3ncccn3)cc2)C[C@@H](C)C(=O)[C@H](C)[C@H]2NC(=O)O[C@@]21C [Compound 8] , report MIC.
Marked response: 0.25

Exam item: Provide measured MIC value, entry: CC[C@H]1OC(=O)[C@H](C)[C@@H](OC(C)=O)[C@H](C)[C@@H](O[C@@H]2O[C@H](C)C[C@H](N(C)C)[C@H]2O)[C@](C)(OC(=O)NC/C=C/c2ccc(-c3ncccn3)cc2)C[C@@H](C)C(=O)[C@H](C)[C@H]2NC(=O)O[C@@]21C [Compound 12]
Marked response: 0.25

Exam item: Specify reported MIC for the compound shown: CC[C@H]1OC(=O)[C@H](C)[C@@H](OC(=O)/C(=N/OC)c2cccnc2)[C@H](C)[C@@H](O[C@@H]2O[C@H](C)C[C@H](N(C)C)[C@H]2O)[C@](C)(OC(=O)NC/C=C/c2ccc(-c3ncccn3)cc2)C[C@@H](C)C(=O)[C@H](C)[C@H]2NC(=O)O[C@@]21C [Compound 43]
Marked response: 1

Exam item: Given CC[C@H]1OC(=O)[C@H](C)[C@@H](OC(=O)Cc2cn(C)c3ccccc23)[C@H](C)[C@@H](O[C@@H]2O[C@H](C)C[C@H](N(C)C)[C@H]2O)[C@](C)(OC(=O)NC/C=C/c2ccc(-c3ncccn3)cc2)C[C@@H](C)C(=O)[C@H](C)[C@H]2NC(=O)O[C@@]21C [Compound 11] , respond with its MIC.
Marked response: 2

Exam item: Give a short answer stating reported MIC for CC[C@H]1OC(=O)[C@H](C)[C@@H](OC(=O)COCc2ccccc2)[C@H](C)[C@@H](O[C@@H]2O[C@H](C)C[C@H](N(C)C)[C@H]2O)[C@](C)(OC(=O)NC/C=C/c2ccc(-c3ncccn3)cc2)C[C@@H](C)C(=O)[C@H](C)[C@H]2NC(=O)O[C@@]21C [Compound 16] .
Marked response: 0.5

Exam item: Hello, please tell me recorded MIC for this one: CC[C@H]1OC(=O)[C@H](C)[C@@H](OC(=O)C(C)C)[C@H](C)[C@@H](O[C@@H]2O[C@H](C)C[C@H](N(C)C)[C@H]2O)[C@](C)(OC(=O)NC/C=C/c2cccnc2)C[C@@H](C)C(=O)[C@H](C)[C@H]2NC(=O)O[C@@]21C [Compound 17]
Marked response: 0.25

1. CC[C@H]1OC(=O)[C@H](C)[C@@H](OC(=O)C(C)C)[C@H](C)[C@@H](O[C@@H]2O[C@H](C)C[C@H](N(C)C)[C@H]2O)[C@](C)(OC(=O)NC/C=C/c2ccnc3ccccc23)C[C@@H](C)C(=O)[C@H](C)[C@H]2NC(=O)O[C@@]21C [Compound 33]
2. CC[C@H]1OC(=O)[C@H](C)[C@@H](OC(=O)Cc2cccnc2)[C@H](C)[C@@H](O[C@@H]2O[C@H](C)C[C@H](N(C)C)[C@H]2O)[C@](C)(OC(=O)NC/C=C/c2cnc(C(F)(F)F)nc2)C[C@@H](C)C(=O)[C@H](C)[C@H]2NC(=O)O[C@@]21C [Compound 38]
Exam item: Lowest MIC? choose 1 or 2 Kindly state the label of the option you pick.
Marked response: 1
(1: 0.25 µg/mL, 2: 0.5 µg/mL)

P. CC[C@H]1OC(=O)[C@H](C)[C@@H](OC(=O)C(C)C)[C@H](C)[C@@H](O[C@@H]2O[C@H](C)C[C@H](N(C)C)[C@H]2O)[C@](C)(OC(=O)NC/C=C/C=C/c2cccnc2)C[C@@H](C)C(=O)[C@H](C)[C@H]2NC(=O)O[C@@]21C [Compound 24]
Q. CC[C@H]1OC(=O)[C@H](C)[C@@H](OC(=O)Cc2cccnc2)[C@H](C)[C@@H](O[C@@H]2O[C@H](C)C[C@H](N(C)C)[C@H]2O)[C@](C)(OC(=O)NC/C=C/c2cnc(C3CC3)nc2)C[C@@H](C)C(=O)[C@H](C)[C@H]2NC(=O)O[C@@]21C [Compound 39]
Exam item: Which numeric MIC is bigger, that of P or that of Q ? Identify your pick by its label.
Marked response: Q
